# procedureText: Molar enthalpy of transition or fusion
# conditionDescription: Crystal; DSC
measure: Molar enthalpy of transition or fusion (kcal/mol)

Consider the worked cases shown below.
- molSmiles: "CCCCCCCCN"
  Molar enthalpy of transition or fusion [kcal/mol]: 8.3
- molSmiles: "CCCCCCCCCCO"
  Molar enthalpy of transition or fusion [kcal/mol]: 7.5
- molSmiles: "CCCCCCCCCO"
  Molar enthalpy of transition or fusion [kcal/mol]: 5.87
- molSmiles: "CCCCCCCCCCCO"
  Molar enthalpy of transition or fusion [kcal/mol]: 7.31

(a) CCCCCCN
(b) CCCCCCCCCCN
Prompt: Looking at recorded values for Molar enthalpy of transition or fusion, does a or b come in lower? Pick one; state its label.
Response: a
(a: 5.98 kcal/mol, b: 10.2 kcal/mol)
